Assay: protein stability index of a GFP-peptide fusion (GPS, HEK-293T) (PSI 1-6); higher = more stable;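 further: 24-mer peptide tiles fused after GFP, lentivirally expressed, FACS-sorted into six equal bins by GFP/DsRed ratio, decoded by Illumina sequencing, PSI is the read-weighted mean bin number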
Settings: treatment: MLN4924 1 uM, 8 h; c terminus: a fixed tail appended
The sequences listed here are annotated with their protein stability index.
Give a plain numeric answer without units written out.

Consider the worked cases shown below.
[
  {
    "sequence-content": "EAPDSLNGPLGPSEASIASNLQAM [SMG5]",
    "measured-endpoint": "protein stability index",
    "recorded-result": 4.91
  },
  {
    "sequence-content": "LGVAQRSLPLQDELAFAEDLVLDE [ESRRA]",
    "measured-endpoint": "protein stability index",
    "recorded-result": 3.93
  },
  {
    "sequence-content": "MDGSGEQPRGGVSSRIEQGEWGGR",
    "measured-endpoint": "protein stability index",
    "recorded-result": 4.58
  }
]

Report measured protein stability index; entry is PMVRKRSVSNSTQTSSSSSQSETS [DLC1] 5.3

Report measured protein stability index; entry is FLLVQRFGELMRKLWNPRNFKAHV [USP39] 2.54

Report measured protein stability index; entry is GPALAGEPAGSLRELGVWRSLLRL [C2CD2L] 2.56
